Reported inhibition by item:
# Target Under Test: Polyadenylate-binding protein 1 (Homo sapiens)
# Test Summary: inhibitors of PABP1 MLLE–PAM2 peptide binding, primary screen, biochemical, fluorescence polarization, FITC-PAM2, GST-MLLE (AID 588489);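 further: plate controls were DMSO wells with GST-MLLE for no effect and wells lacking GST-MLLE protein for full effect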
# Test Context: at 20 µM, hits give high values
Among all 360,000 compounds or so, about 1,300 (0.36%) were called active. The full list was thinned out, with actives kept by preference.
# unit: % | format: bare number

Solved entries (count: 5):
>  <Molecule>
CCOC(=O)CNC(=O)CSc1nc2cccnc2n1CC

>  <inhibition / %>
0.93

$$$$
>  <Molecule>
NC(CSC12CC3CC(CC(C3)C1)C2)C(=O)O (stereo not given)

>  <inhibition / %>
11.7

$$$$
>  <Molecule>
O=C(COC(=O)/C=C/c1nc2ccccc2s1)Nc1ccccc1Oc1ccccc1

>  <inhibition / %>
-5.84

$$$$
>  <Molecule>
CCC(=O)NNc1cc(=O)c2c(=O)n(C)c(=O)n(C)c2[nH]1

>  <inhibition / %>
-6.2

$$$$
>  <Molecule>
COc1ccc2c(c1)C(NS(=O)(=O)OCC(Cl)(Cl)Cl)CCC2 (stereo not given)

>  <inhibition / %>
-0.88

$$$$

Next up:
Record Cc1cccc(N(C(=O)Cc2cccs2)C(C(=O)NC2CCCC2)c2ccsc2)c1 (stereo not given) , field inhibition: -14.8

* * *

# Target Under Test: Polyadenylate-binding protein 1 (Homo sapiens) (UniProt P11940)
# Sequence (P11940 whole entry, looked up): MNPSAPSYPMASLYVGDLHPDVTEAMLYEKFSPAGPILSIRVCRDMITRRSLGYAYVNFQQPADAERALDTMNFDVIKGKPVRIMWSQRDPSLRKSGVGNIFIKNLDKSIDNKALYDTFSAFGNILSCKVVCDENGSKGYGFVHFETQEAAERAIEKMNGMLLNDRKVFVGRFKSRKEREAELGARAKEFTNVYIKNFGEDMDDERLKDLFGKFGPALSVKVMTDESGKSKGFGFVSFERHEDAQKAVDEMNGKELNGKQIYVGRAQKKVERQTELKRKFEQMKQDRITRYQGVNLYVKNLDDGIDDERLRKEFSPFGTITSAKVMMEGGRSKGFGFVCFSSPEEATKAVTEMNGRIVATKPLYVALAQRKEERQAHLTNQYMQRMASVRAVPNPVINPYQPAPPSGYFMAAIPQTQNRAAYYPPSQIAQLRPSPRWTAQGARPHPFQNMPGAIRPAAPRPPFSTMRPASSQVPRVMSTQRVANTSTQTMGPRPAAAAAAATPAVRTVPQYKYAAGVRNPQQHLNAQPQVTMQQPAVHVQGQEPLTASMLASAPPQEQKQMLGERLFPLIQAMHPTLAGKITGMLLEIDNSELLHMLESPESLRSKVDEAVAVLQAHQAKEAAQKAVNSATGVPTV
# Test Summary: inhibitors of PABP1 MLLE–PAM2 peptide binding, primary screen, biochemical, fluorescence polarization, FITC-PAM2, GST-MLLE (AID 588489)
# Test Context: at 20 µM
The whole screen tested about 360,000 compounds, of which about 1,300 (0.36%) were called active. No stated cut-off is given here; in the data, active means inhibition above about 35% (passing the limit was not always enough); inactive means the rest. What follows is part of a selection rich in actives, with near analogues and random picks from the rest.
Classes to choose from: class 1 = active, class 0 = inactive

Check out these entries, answers already filled in.
>  <Compound>
COC(=O)C1=C(Nc2ccc(C)cc2)C=C(C)C(C(=O)OC)C1c1ccc(F)cc1 (stereo unspecified)

>  <Qualitative Label>
class 0

$$$$
>  <Compound>
O=C(C(Cl)Cl)N1CCN(c2ccccn2)CC1

>  <Qualitative Label>
class 0

$$$$
>  <Compound>
O=C(Cc1ccc(Br)cc1)N1CCN(c2ccccn2)CC1

>  <Qualitative Label>
class 1

$$$$
>  <Compound>
O=C(Cc1ccccc1Cl)N1CCN(c2ccccn2)CC1

>  <Qualitative Label>
class 0

$$$$
>  <Compound>
COc1ccc(Br)cc1C(=O)Nc1cccc(C)c1C

>  <Qualitative Label>
class 0

$$$$

Okay, next one:
Q: Which outcome was entered for the compound CC(C)N(C(=O)Cn1cc(SCC(=O)N2CCCC2)c2ccccc21)C(C)C in this test?
Result: class 0

* * *

# Target Under Test: Polyadenylate-binding protein 1 (Homo sapiens)
# Test Summary: inhibitors of PABP1 MLLE–PAM2 peptide binding, primary screen, biochemical, fluorescence polarization, FITC-PAM2, GST-MLLE (AID 588489);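 further: plate controls were DMSO wells with GST-MLLE for no effect and wells lacking GST-MLLE protein for full effect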
# Test Context: at 20 µM, hits give high values
The whole screen tested about 360,000 compounds, of which about 1,300 (0.36%) were called active. The sample holds actives, similar compounds and a random draw of the others, so the mix is not that of the screen.
Measure: inhibition

Solved entries (count: 4):
>  <Compound>
Cc1csc(NC(=S)Nc2cccc(Cl)c2)n1

>  <inhibition>
35.5% (active)

$$$$
>  <Compound>
Cc1ccccc1NC(=O)CCOc1ccccc1

>  <inhibition>
4.98% (inactive)

$$$$
>  <Compound>
Cc1ccc(C2CCN(C(=S)Nc3cccc(Cl)c3)C2)cc1 (configuration not stated)

>  <inhibition>
-122% (inactive)

$$$$
>  <Compound>
Cc1cccc(NC(=S)Nc2ccc(Cl)c(Cl)c2)c1

>  <inhibition>
37.8% (active)

$$$$

Measured on Polyadenylate-binding protein 1 (Homo sapiens), CC(C)N(c1ccccc1)c1ncnc(NCCC(=O)O)c1[N+](=O)[O-] has a documented inhibition of -7.92% (inactive)

Measured on Polyadenylate-binding protein 1 (Homo sapiens), COCC(C)N=CC1=C(O)CC(C)(C)CC1=O (configuration not stated) has a documented inhibition of 6.93% (inactive)

Measured on Polyadenylate-binding protein 1 (Homo sapiens), Cc1cccc(NC(=O)CSC(N)=O)c1C has a documented inhibition of 38.8% (active)

Measured on Polyadenylate-binding protein 1 (Homo sapiens), Cc1cccc(NC(=O)COC(=O)CCc2ccccc2)c1C has a documented inhibition of -0.48% (inactive)

Measured on Polyadenylate-binding protein 1 (Homo sapiens), O=C(Cc1ccc(F)cc1)N1CCN=C1SCc1cccc([N+](=O)[O-])c1 has a documented inhibition of -6.14% (inactive)

Measured on Polyadenylate-binding protein 1 (Homo sapiens), NS(=O)(=O)c1ccc(NC(=S)Nc2ccc(Br)c(Cl)c2)cc1 has a documented inhibition of 33.2% (inactive)

Measured on Polyadenylate-binding protein 1 (Homo sapiens), Cc1ccc(C)c(NC(=S)NNC(=S)Nc2ccc(C(C)C)cc2)c1 has a documented inhibition of 30.8% (inactive)

Measured on Polyadenylate-binding protein 1 (Homo sapiens), O=C(NCc1cn2ccsc2n1)Nc1cccc(Cl)c1 has a documented inhibition of -5.66% (inactive)

* * *

# Target Under Test: Polyadenylate-binding protein 1 (Homo sapiens)
# Test Summary: inhibitors of PABP1 MLLE–PAM2 peptide binding, primary screen, biochemical, fluorescence polarization, FITC-PAM2, GST-MLLE (AID 588489);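 further: plate controls were DMSO wells with GST-MLLE for no effect and wells lacking GST-MLLE protein for full effect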
# Test Context: at 20 µM, hits give high values
Screen size: about 360,000 compounds; about 1,300 (0.36%) were called active. The entries come from a sample that favours actives as a whole.
Measure: inhibition

Solved entries (count: 4):
>  <Compound>
COc1ccc(-c2nc(CS(=O)CC(=O)NCc3cccnc3)c(C)o2)cc1OC (configuration not stated)

>  <Target Under Test>
Polyadenylate-binding protein 1 (Homo sapiens)

>  <Experimental Result>
23.2% (inactive)

$$$$
>  <Compound>
O=S(=O)(NCc1ccccn1)c1ccc(Br)s1

>  <Target Under Test>
Polyadenylate-binding protein 1 (Homo sapiens)

>  <Experimental Result>
-6.68% (inactive)

$$$$
>  <Compound>
O=C(NC1(C(F)(F)F)N=C2SCCN2C1=O)c1ccco1 (configuration not stated)

>  <Target Under Test>
Polyadenylate-binding protein 1 (Homo sapiens)

>  <Experimental Result>
35.9% (inactive)

$$$$
>  <Compound>
CNc1nccc(-c2ccc(Cl)cc2)c1C#N

>  <Target Under Test>
Polyadenylate-binding protein 1 (Homo sapiens)

>  <Experimental Result>
11.5% (inactive)

$$$$

Next up:
Record CC(=O)Oc1ccc(N(C(C)=O)S(=O)(=O)c2ccc3ccccc3c2)cc1Br , field inhibition: -22.5% (inactive)

* * *

# Target Under Test: Polyadenylate-binding protein 1 (Homo sapiens) (UniProt P11940)
# Test Summary: inhibitors of PABP1 MLLE–PAM2 peptide binding, primary screen, biochemical, fluorescence polarization, FITC-PAM2, GST-MLLE (AID 588489);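 further: plate controls were DMSO wells with GST-MLLE for no effect and wells lacking GST-MLLE protein for full effect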
# Test Context: at 20 µM
Among all 360,000 compounds or so, about 1,300 (0.36%) were called active. Cut-off read from the data, not from the text of the source: active = inhibition above about 35% (passing the limit was not always enough); inactive = the rest. The full list was thinned out, with actives kept by preference.
Classes to choose from: active, inactive

>  <Compound>
CC1(C(=O)NS(=O)(=O)Cc2cccc(Cl)c2)CCN1C(=O)Cc1ccccc1 (stereo not given)

>  <Qualitative Label>
inactive

$$$$

Q: Which outcome was entered for the compound CCOC(=O)c1cc2sccc2n1Cc1ccc(C#N)cc1 in this test?
Result: inactive

Q: Which outcome was entered for the compound COc1ccccc1-c1cc2nc(NCc3cccc(Cl)c3)ccn2n1 in this test?
Result: inactive

Q: Which outcome was entered for the compound COCCn1c(N)c(NCc2ccccc2)c(=O)[nH]c1=O in this test?
Result: active

Q: Which outcome was entered for the compound CCOCc1nnc(NC(=O)CCC2CCCCC2)s1 in this test?
Result: inactive

Q: Which outcome was entered for the compound O=C1c2ccccc2C2=Nc3ccccc3SC(c3ccccc3F)C12 (stereo not given) in this test?
Result: inactive

Q: Which outcome was entered for the compound Cc1ccc(NC(=S)Nc2ccc(F)cc2)cc1 in this test?
Result: active

Q: Which outcome was entered for the compound O=C(CSc1ccsc1[N+](=O)[O-])N1CCCCC1 in this test?
Result: inactive

Q: Which outcome was entered for the compound CCOC(=O)N1CCN(C(=O)C2CCN(c3ncnc4c3sc3cccc(F)c34)CC2)CC1 in this test?
Result: inactive

Q: Which outcome was entered for the compound C/C=C/c1ccc(OCCCCN2CCC(C)CC2)c(OC)c1 in this test?
Result: inactive

Q: Which outcome was entered for the compound CC1(C(=O)Nc2cccc3cccnc23)CCN1C(=O)CCC1CCCC1 (stereo not given) in this test?
Result: inactive

Q: Which outcome was entered for the compound CC1CCN(C(=S)NC(=O)c2ccccc2Br)CC1 in this test?
Result: inactive

Q: Which outcome was entered for the compound O=C(Nc1ccccc1)c1ccccc1Br in this test?
Result: inactive

Q: Which outcome was entered for the compound Cc1nnc(SCC(=O)N2CCOCC2)[nH]c1=O in this test?
Result: inactive

Q: Which outcome was entered for the compound CCOC(=O)c1c(C)[nH]c(C2=NNC(=NC(C)COC)SC2)c1C (stereo not given) in this test?
Result: inactive

Q: Which outcome was entered for the compound CC(=O)Nc1ccc(S(=O)(=O)Oc2ccc(Br)cc2C(=S)N2CCOCC2)cc1 in this test?
Result: inactive

Q: Which outcome was entered for the compound CCCCOC(=O)CNc1nnc(SCC(=O)OCC)[nH]c1=O in this test?
Result: active
